- MEASURED TARGET: T1, SCAF8-CID (human, UniProt Q9UPN6 1-139)
- T1 sequence: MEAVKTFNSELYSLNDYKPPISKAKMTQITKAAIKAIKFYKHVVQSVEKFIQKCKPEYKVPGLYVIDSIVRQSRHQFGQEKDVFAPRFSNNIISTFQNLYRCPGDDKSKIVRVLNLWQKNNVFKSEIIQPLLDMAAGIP
- PROCEDURE DETAILS: competition FP
ATTRIBUTE MEASURED: pIC50
Lab note: report pIC50 as minus log10 of the concentration in molar units, number only.

Sample answers from the record:
>  <BINDER>
GGGGTGGGGAG (ssDNA) [SRiApt-1 (F3_11-nt)]

>  <VALUE OBSERVED>
5.82

$$$$
>  <BINDER>
CAGGTGGGTTC (ssDNA) [SRiApt-2 (F7_11-nt_B)]

>  <VALUE OBSERVED>
5.57

$$$$
>  <BINDER>
GTGGG (ssDNA) [SCAF4_LS (D2_5-nt)]

>  <VALUE OBSERVED>
5.71

$$$$

Pending binder:
Look up pIC50: TTAAAGGGGTGGGGAGTCAT (ssDNA) [SRiApt-3] 6.54
